The origin of these recorded values is patent US9340577B2.

Each entry below carries its reported IC50.
Target desc: DR7 (DRB1*0701) (Homo sapiens, UniProt P01903+P01911, A100R/A102G/A103Q/D57E/D86V/E43K/F76Y/K127E/L162R/M171V/P40G/Q125H/Q99D/R33Q/R42Y/R54Q/S133A/S66F/T210M/V115G/Y107V/Y59L/Y89S)
Procedure text: biochemical
Assay type: binding
Value kind: IC50

[[record]]
molecule = "CC(C)C[C@H](NC(=O)[C@H](CCC(N)=O)NC(=O)[C@H](C)NC(=O)[C@H](CC(N)=O)NC(=O)[C@H](CCCCN)NC(=O)[C@@H](NC(=O)[C@H](CCCCN)NC(=O)[C@H](CC(N)=O)NC(=O)CN)C(C)C)C(=O)N[C@@H](C)C(=O)NCC(=O)N[C@@H](C)C(=O)N[C@@H](CCCCN)C(=O)NCC(=O)N[C@H](C(=O)O)C(C)C [Peptide 68.0097]"
value_kind = "IC50"
result = "> 20 µM"

[[record]]
molecule = "CC(C)C[C@H](NC(=O)CNC(=O)[C@H](CC(N)=O)NC(=O)[C@H](Cc1ccc(O)cc1)NC(=O)[C@@H](NC(=O)[C@H](CC(=O)O)NC(=O)[C@H](CC(C)C)NC(=O)[C@H](C)N)C(C)C)C(=O)N[C@@H](CC(C)C)C(=O)N1CCC[C@H]1C(=O)N1CCC[C@H]1C(=O)N[C@@H](Cc1ccc(O)cc1)C(=O)N[C@@H](C)C(=O)N[C@@H](CO)C(=O)N[C@@H](CS)C(=O)O [Peptide 68.0052]"
value_kind = "IC50"
result = "> 20 µM"

[[record]]
molecule = "CC[C@H](C)[C@H](NC(=O)CNC(=O)[C@H](CCC(N)=O)NC(=O)[C@H](CC(C)C)NC(=O)[C@@H](NC(=O)CNC(=O)[C@H](CC(N)=O)NC(=O)[C@H](CS)NC(=O)[C@@H](NC(=O)[C@H](CC(C)C)NC(=O)[C@@H]1CCCN1C(=O)CNC(=O)CN)C(C)C)C(C)C)C(=O)N[C@H](C(=O)N[C@@H](CO)C(=O)O)[C@@H](C)O [Peptide 68.0079]"
value_kind = "IC50"
result = "> 20 µM"

